- ASSAYED_SYSTEM: HRgpA-6H (Porphyromonas gingivalis) (UniProt P28784)
- MEASUREMENT_PROTOCOL: ELISA, FASEBA screening, coated HRgpA-6H 0.0625 ug/ml

BINDER	OD450 nm
KB001 parental mouse Fab FASEBA variant VH G99F (Fab, V domains shown) VH: EVQLKQSGPGLVAPSQSLSITCTVSGFSLSIYSVHWVRQPPGKGLEWLGMIWGGGSSDYNSALKSRLSISKDNSKSQVFLKMNSLQTDDTAMYYCARNFNFYAMDYWGQGTSVTVSS VL: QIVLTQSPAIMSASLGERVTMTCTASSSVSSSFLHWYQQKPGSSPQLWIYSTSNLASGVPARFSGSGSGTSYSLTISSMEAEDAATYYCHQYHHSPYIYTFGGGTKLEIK	0.771
KB001 parental mouse Fab FASEBA variant VH K64D (Fab, V domains shown) VH: EVQLKQSGPGLVAPSQSLSITCTVSGFSLSIYSVHWVRQPPGKGLEWLGMIWGGGSSDYNSALDSRLSISKDNSKSQVFLKMNSLQTDDTAMYYCARNGNFYAMDYWGQGTSVTVSS VL: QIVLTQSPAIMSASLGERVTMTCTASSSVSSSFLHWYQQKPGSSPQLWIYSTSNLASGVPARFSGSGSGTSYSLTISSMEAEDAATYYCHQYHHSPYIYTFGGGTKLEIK	0.781
KB001 parental mouse Fab FASEBA variant VH K64G (Fab, V domains shown) VH: EVQLKQSGPGLVAPSQSLSITCTVSGFSLSIYSVHWVRQPPGKGLEWLGMIWGGGSSDYNSALGSRLSISKDNSKSQVFLKMNSLQTDDTAMYYCARNGNFYAMDYWGQGTSVTVSS VL: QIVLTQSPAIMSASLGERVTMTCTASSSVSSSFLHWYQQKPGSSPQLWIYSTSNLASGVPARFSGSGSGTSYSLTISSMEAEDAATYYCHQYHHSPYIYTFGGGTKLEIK	0.811
KB001 parental mouse Fab FASEBA variant VH S65G (Fab, V domains shown) VH: EVQLKQSGPGLVAPSQSLSITCTVSGFSLSIYSVHWVRQPPGKGLEWLGMIWGGGSSDYNSALKGRLSISKDNSKSQVFLKMNSLQTDDTAMYYCARNGNFYAMDYWGQGTSVTVSS VL: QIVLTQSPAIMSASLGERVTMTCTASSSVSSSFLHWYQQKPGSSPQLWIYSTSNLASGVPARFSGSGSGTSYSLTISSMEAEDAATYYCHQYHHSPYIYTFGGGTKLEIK	0.825
KB001 parental mouse Fab FASEBA variant VH S65R (Fab, V domains shown) VH: EVQLKQSGPGLVAPSQSLSITCTVSGFSLSIYSVHWVRQPPGKGLEWLGMIWGGGSSDYNSALKRRLSISKDNSKSQVFLKMNSLQTDDTAMYYCARNGNFYAMDYWGQGTSVTVSS VL: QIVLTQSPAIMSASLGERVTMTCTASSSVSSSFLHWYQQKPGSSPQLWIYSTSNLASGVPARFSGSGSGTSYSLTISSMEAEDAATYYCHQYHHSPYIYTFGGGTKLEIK	0.794
KB001 parental mouse Fab FASEBA (WT) (Fab, V domains shown) VH: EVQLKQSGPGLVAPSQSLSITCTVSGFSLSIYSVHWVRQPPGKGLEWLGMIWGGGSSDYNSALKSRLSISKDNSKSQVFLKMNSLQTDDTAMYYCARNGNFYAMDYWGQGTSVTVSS VL: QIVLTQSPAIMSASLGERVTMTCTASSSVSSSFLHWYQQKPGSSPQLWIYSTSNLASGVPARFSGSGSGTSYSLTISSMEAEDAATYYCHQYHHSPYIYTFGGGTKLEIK	0.831
KB001 parental mouse Fab FASEBA variant VH N100C (Fab, V domains shown) VH: EVQLKQSGPGLVAPSQSLSITCTVSGFSLSIYSVHWVRQPPGKGLEWLGMIWGGGSSDYNSALKSRLSISKDNSKSQVFLKMNSLQTDDTAMYYCARNGCFYAMDYWGQGTSVTVSS VL: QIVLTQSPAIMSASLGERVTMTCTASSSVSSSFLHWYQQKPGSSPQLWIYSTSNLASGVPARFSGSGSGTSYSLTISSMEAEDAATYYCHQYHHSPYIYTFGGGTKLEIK	0.688
KB001 parental mouse Fab FASEBA variant VH N100P (Fab, V domains shown) VH: EVQLKQSGPGLVAPSQSLSITCTVSGFSLSIYSVHWVRQPPGKGLEWLGMIWGGGSSDYNSALKSRLSISKDNSKSQVFLKMNSLQTDDTAMYYCARNGPFYAMDYWGQGTSVTVSS VL: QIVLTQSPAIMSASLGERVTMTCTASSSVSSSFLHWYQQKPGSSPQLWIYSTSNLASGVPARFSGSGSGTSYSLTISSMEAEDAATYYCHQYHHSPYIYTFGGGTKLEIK	0.757
KB001 parental mouse Fab FASEBA variant VH K64M (Fab, V domains shown) VH: EVQLKQSGPGLVAPSQSLSITCTVSGFSLSIYSVHWVRQPPGKGLEWLGMIWGGGSSDYNSALMSRLSISKDNSKSQVFLKMNSLQTDDTAMYYCARNGNFYAMDYWGQGTSVTVSS VL: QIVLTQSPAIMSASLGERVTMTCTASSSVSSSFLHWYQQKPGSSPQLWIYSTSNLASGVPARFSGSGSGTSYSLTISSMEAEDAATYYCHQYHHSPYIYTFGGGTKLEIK	0.784
KB001 parental mouse Fab FASEBA variant VH G99A (Fab, V domains shown) VH: EVQLKQSGPGLVAPSQSLSITCTVSGFSLSIYSVHWVRQPPGKGLEWLGMIWGGGSSDYNSALKSRLSISKDNSKSQVFLKMNSLQTDDTAMYYCARNANFYAMDYWGQGTSVTVSS VL: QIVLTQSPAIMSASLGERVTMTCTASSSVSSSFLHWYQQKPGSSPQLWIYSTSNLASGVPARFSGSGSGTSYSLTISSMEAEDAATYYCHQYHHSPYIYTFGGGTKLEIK	0.74
